All figures here come from patent US11845724B2.

- System tested: USP30 (Homo sapiens (Human), UniProt Q70CQ3)
- Sequence (Q70CQ3 whole entry): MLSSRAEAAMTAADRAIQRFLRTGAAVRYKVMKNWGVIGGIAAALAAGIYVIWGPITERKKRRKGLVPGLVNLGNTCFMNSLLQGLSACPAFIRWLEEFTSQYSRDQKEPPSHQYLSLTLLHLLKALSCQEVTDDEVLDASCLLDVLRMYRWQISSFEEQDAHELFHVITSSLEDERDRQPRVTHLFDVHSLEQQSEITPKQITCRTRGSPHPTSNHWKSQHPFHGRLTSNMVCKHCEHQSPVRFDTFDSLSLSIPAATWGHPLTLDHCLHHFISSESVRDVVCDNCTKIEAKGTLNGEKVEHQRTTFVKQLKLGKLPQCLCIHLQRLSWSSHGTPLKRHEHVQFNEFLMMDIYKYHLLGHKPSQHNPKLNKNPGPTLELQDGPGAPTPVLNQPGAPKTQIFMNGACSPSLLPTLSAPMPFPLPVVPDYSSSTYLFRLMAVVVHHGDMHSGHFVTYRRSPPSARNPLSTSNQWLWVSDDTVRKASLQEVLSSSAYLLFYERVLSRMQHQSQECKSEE
- Experimental protocol: Dundee MALDI-TOF mass spectrometry assay (IC50)
- Type: biochemical
- Condition description: USP30 25 ng/μl, K48-linked diubiquitin 5.6 μM, avg, read-out: Dundee IC50 μM (avg in vitro MS assay)
Overview of reported IC50 across a group of compounds:

Worked examples follow.
C[C@@H](NS(=O)(=O)c1ccc(NC(=O)[C@H](Cc2ccccc2)NC(=O)c2ccc(F)cc2)cc1)C(F)(F)F [Compound I-26]; < 0.05 µM
Cc1cc(NC(=O)[C@H](Cc2ccccc2)NC(=O)c2ccc(F)cc2)ccc1S(=O)(=O)NC(C)(C)C [Compound I-96]; 0.05 to 1 µM
O=C(N[C@@H](Cc1cccnc1)C(=O)Nc1ccc(S(=O)(=O)NC2COC2)cc1)c1ccc(F)cc1 [Compound I-66]; 0.05 to 1 µM
O=C(N[C@@H](Cc1ccccc1)C(=O)Nc1ccc(S(=O)(=O)NC23CC(C2)C3)cc1)c1cccnc1 [Compound I-79]; 0.05 to 1 µM
COCCNS(=O)(=O)c1ccc(NC(=O)[C@H](Cc2ccccc2)NC(=O)c2ccc(F)cc2)nc1 [Compound I-120]; 0.05 to 1 µM

Task item: // lookup IC50 for O=C(N[C@@H](Cc1ccccc1)C(=O)Nc1ccc(S(=O)(=O)NC2COC2)nc1)c1ccc(F)cc1 [Compound I-106]
Reply: 0.05 to 1 µM

Task item: Try O=C(N[C@@H](Cc1ccccn1)C(=O)Nc1ccc(S(=O)(=O)NC2CCC2)cc1)c1ccc(F)cc1 [Compound I-142] next.
Reply: < 0.05 µM

----------
- System tested: recombinant USP30 (amino acids 57-517 of the human sequence) (Homo sapiens (Human), UniProt Q70CQ3)
- Sequence (Q70CQ3 57-517): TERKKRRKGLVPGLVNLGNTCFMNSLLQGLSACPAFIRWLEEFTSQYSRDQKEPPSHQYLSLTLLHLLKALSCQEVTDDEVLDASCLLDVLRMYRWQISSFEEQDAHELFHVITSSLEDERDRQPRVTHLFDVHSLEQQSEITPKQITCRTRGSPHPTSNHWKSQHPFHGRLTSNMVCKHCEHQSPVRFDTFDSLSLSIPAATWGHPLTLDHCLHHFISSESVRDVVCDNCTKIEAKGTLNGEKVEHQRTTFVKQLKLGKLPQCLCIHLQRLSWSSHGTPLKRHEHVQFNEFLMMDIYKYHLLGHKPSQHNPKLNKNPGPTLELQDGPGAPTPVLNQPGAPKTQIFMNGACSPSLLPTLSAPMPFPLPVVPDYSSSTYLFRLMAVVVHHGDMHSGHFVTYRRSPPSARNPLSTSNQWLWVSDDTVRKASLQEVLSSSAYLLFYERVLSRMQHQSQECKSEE
- Experimental protocol: In vitro USP30 biochemical assay (Ubiquitin-Rhodamine)
- Condition description: USP30 IC50 μM (avg), Ubiquitin-Rhodamine substrate 25 nM, 1.5 nM recombinant USP30
This section presents compounds with their documented IC50 values.

Task item: Any idea what its IC50 is? The compound is CC(C)(C)NS(=O)(=O)c1ccc(NC(=O)C2Cc3cnccc3CN2C(=O)c2ccc(F)cc2)cc1 (stereo not shown)
Reply: 1 to 10 µM

Task item: Here is the next compound: CC(C)(C)OCCNS(=O)(=O)c1ccc(NC(=O)[C@H](Cc2ccccc2)NC(=O)c2ccc(F)cc2)cc1
Reply: 1 to 10 µM

Task item: Another compound: O=C(N[C@@H](Cc1ccccc1)C(=O)Nc1ccc(S(=O)(=O)NC23CC(C2)C3)cn1)c1ccc(F)cc1
Reply: 0.05 to 1 µM

Task item: Further, for O=C(N[C@@H](Cc1ccccc1)C(=O)Nc1ccc(S(=O)(=O)NCCO)nc1)c1ccc(F)cc1 ?
Reply: 0.05 to 1 µM

Task item: Lookup COCCC(C)(C)NS(=O)(=O)c1ccc(NC(=O)[C@H](Cc2ccccc2)NC(=O)c2ccc(F)cc2)cc1Cl
Reply: 0.05 to 1 µM

Task item: Can you handle COc1cc(S(=O)(=O)NC2COC2)ccc1NC(=O)[C@H](Cc1ccccc1)NC(=O)c1ccc(F)cc1 next?
Reply: 0.05 to 1 µM

Task item: Moving on to COCC(C)(C)NS(=O)(=O)c1ccc(NC(=O)[C@H](Cc2ccccc2)NC(=O)c2ccc(F)cc2)cc1OC
Reply: 0.05 to 1 µM

----------
- System tested: recombinant USP30 (amino acids 57-517 of the human sequence) (Homo sapiens (Human))
- Experimental protocol: In vitro USP30 biochemical assay (Ubiquitin-Rhodamine)
- Condition description: USP30 IC50 μM (avg), Ubiquitin-Rhodamine substrate 25 nM, 1.5 nM recombinant USP30
Observation type: IC50

Before answering, review these 10 worked examples.
O=C(N[C@@H](Cc1ccccc1)C(=O)Nc1ccc(S(=O)(=O)NCCN2CCOCC2)cn1)c1ccc(F)cc1 [Compound I-122]; 0.05 to 1 µM
COc1cc(NC(=O)[C@H](Cc2ccccc2)NC(=O)c2ccc(F)cc2)ccc1S(=O)(=O)NC12CC(C1)C2 [Compound I-148]; 0.05 to 1 µM
COc1cc(NC(=O)[C@H](Cc2ccccc2)NC(=O)c2ccc(F)cc2)ccc1S(=O)(=O)NC1COC1 [Compound I-147]; 0.05 to 1 µM
O=C(N[C@@H](Cc1ccccc1)C(=O)Nc1ccc(S(=O)(=O)NC23CC(C2)C3)cc1)c1ccccn1 [Compound I-76]; 1 to 10 µM
CC(C)(C)NS(=O)(=O)c1ccc(NC[C@H](O)[C@H](Cc2ccccc2)NC(=O)c2ccc(F)cc2)cc1 [Compound I-41]; 1 to 10 µM
O=C(N[C@@H](Cc1ccccc1)C(=O)Nc1cccc2c(S(=O)(=O)NC3COC3)cccc12)C1CCCCC1 [Compound I-130]; 0.05 to 1 µM
CN1CC(NS(=O)(=O)c2ccc(NC(=O)[C@H](Cc3ccccc3)NC(=O)c3ccc(F)cc3)cc2)C1 [Compound I-65]; 0.05 to 1 µM
O=C(N[C@@H](Cc1ccccc1)C(=O)Nc1ccc(S(=O)(=O)NC2CCCC2)cc1)c1ccccn1 [Compound I-77]; 0.05 to 1 µM
COCC(C)(C)NS(=O)(=O)c1ccc(NC(=O)[C@H](Cc2ccccc2)N(C)C(=O)c2ccc(F)cc2)cc1 [Compound I-160]; 1 to 10 µM
CC(C)(C)NS(=O)(=O)c1ccc(NC(=O)[C@H](Cc2ccccc2)N2CCc3ccccc3C2=O)cc1 [Compound I-84]; 0.05 to 1 µM

Task item: Can you share its IC50? I mean this compound: CN(C(=O)c1ccc(F)cc1)[C@@H](Cc1cccnc1)C(=O)Nc1ccc(S(=O)(=O)NC(C)(C)C)cc1 [Compound I-91]
Reply: 0.05 to 1 µM

Task item: Input CCNS(=O)(=O)c1ccc(NC(=O)[C@H](Cc2cccnc2)N(C)C(=O)c2ccc(F)cc2)cc1 [Compound I-90]
Reply: 1 to 10 µM

Task item: Moving on to Cc1cc(NC(=O)[C@H](Cc2ccccc2)NC(=O)c2ccc(F)cn2)ccc1S(=O)(=O)NC12CC(C1)C2 [Compound I-98]
Reply: 0.05 to 1 µM

Task item: Same read-out for CN1CCC(NS(=O)(=O)c2ccc(NC(=O)[C@H](Cc3ccccc3)NC(=O)c3ccc(F)cc3)cc2)CC1 [Compound I-33] ?
Reply: 0.05 to 1 µM

----------
- System tested: recombinant USP30 (amino acids 57-517 of the human sequence) (Homo sapiens (Human))
- Experimental protocol: In vitro USP30 biochemical assay (Ubiquitin-Rhodamine)
- Condition description: read-out: USP30 IC50 μM (avg), Ubiquitin-Rhodamine substrate 25 nM, 1.5 nM recombinant USP30
Catalogue of IC50 readings, one per entry.

Consider the following illustrative entries.
O=C(N[C@H](Cc1ccccc1)C(=O)Nc1ccc(S(=O)(=O)NC23CC(C2)C3)cc1)c1ccc(F)cc1; > 10 µM
CC(C)(CO)NS(=O)(=O)c1ccc(NC(=O)[C@H](Cc2ccccc2)NC(=O)c2ccc(F)cc2)cc1; < 0.05 µM
Cc1cc(NC(=O)[C@H](Cc2ccccc2)NC(=O)c2ccc(F)cc2)ccc1S(=O)(=O)NC(C)(C)C; < 0.05 µM
CCNS(=O)(=O)N1CCCc2c(NC(=O)[C@H](Cc3ccccc3)NC(=O)C3CCCCC3)cccc21; > 10 µM
COc1cc(NC(=O)[C@H](Cc2ccccc2)NC(=O)c2ccc(F)cc2)ccc1S(=O)(=O)N[C@H]1CCOC1; < 0.05 µM

Task item: Can you share its IC50? I mean this compound: O=C(N[C@@H](Cc1ccccc1)C(=O)Nc1ccc(S(=O)(=O)N[C@H]2CCOC2)cc1)c1ccc(F)cc1
Reply: < 0.05 µM

Task item: Now the same for O=C(N[C@@H](Cc1ccccc1)C(=O)Nc1ccc(S(=O)(=O)NC23CC(C2)C3)cc1)c1ccc(F)cc1
Reply: 0.05 to 1 µM

Task item: Repeat for the following compound: O=C(NC1(C(=O)Nc2ccc(S(=O)(=O)NC3CC3)cc2)Cc2ccccc2C1)c1ccc(F)cc1
Reply: > 10 µM

Task item: Same question, COCC(C)(C)NS(=O)(=O)c1ccc(NC(=O)[C@H](Cc2ccccc2)NC(=O)c2ccc(F)cc2)cc1 this time
Reply: < 0.05 µM

Task item: Again, but for CC(C)(C)NS(=O)(=O)c1ccc(NC(=O)[C@H](Cc2ccccc2)NC(=O)c2ccc(F)cc2)c(F)c1
Reply: < 0.05 µM

----------
- System tested: USP30 (Homo sapiens (Human), UniProt Q70CQ3)
- Experimental protocol: Dundee MALDI-TOF mass spectrometry assay (IC50)
- Type: biochemical
- Condition description: USP30 25 ng/μl, K48-linked diubiquitin 5.6 μM, avg, read-out: Dundee IC50 μM (avg in vitro MS assay)
Parameter: IC50. Scope: all listed entries.

The examples below pair each entry with its known result.
O=C(N[C@@H](Cc1ccccc1)C(=O)Nc1ccc(S(=O)(=O)NCC(F)(F)F)cc1)c1ccc(F)cc1; < 0.05 µM
CCNS(=O)(=O)c1ccc(NC(=O)[C@H](Cc2ccccc2)NC(=O)c2ccc(F)cc2)c(F)c1; 0.05 to 1 µM
CCNS(=O)(=O)c1ccc(NC(=O)C2(NC(=O)c3ccccc3)CCc3ccccc3C2)cc1 (centres unmarked); > 1 µM

Task item: Under USP30 (Homo sapiens (Human), UniProt Q70CQ3): IC50 value of COCCNS(=O)(=O)c1ccc(NC(=O)[C@H](Cc2ccccc2)NC(=O)c2ccc(F)cc2)cc1OC ?
Reply: < 0.05 µM

Task item: Item: COCCNS(=O)(=O)c1ccc(NC(=O)[C@H](Cc2ccccc2)NC(=O)c2ccc(F)cc2)cn1
Reply: 0.05 to 1 µM

Task item: Note, next up: O=C(N[C@@H](Cc1ccccc1)C(=O)Nc1ccc(S(=O)(=O)NC2CCCC2)cc1)c1ccc(F)cc1
Reply: < 0.05 µM

Task item: What would you report for O=C(N[C@@H](Cc1ccccc1)C(=O)Nc1ccc(S(=O)(=O)Nc2ccccc2)cc1)c1ccc(F)cc1 ?
Reply: 0.05 to 1 µM

Task item: Next entry: CN1CCC(NS(=O)(=O)c2ccc(NC(=O)[C@H](Cc3ccccc3)NC(=O)c3ccc(F)cc3)cc2)CC1
Reply: 0.05 to 1 µM

Task item: Record: O=C(N[C@@H](Cc1ccccc1)C(=O)Nc1ccc(S(=O)(=O)NC23CC(C2)C3)cc1)c1ccccn1
Reply: 0.05 to 1 µM

Task item: What would you report for CCNS(=O)(=O)c1ccc(NC(=O)[C@H](Cc2ccccc2)NC(=O)c2ccc(F)cc2)nc1 ?
Reply: < 0.05 µM

Task item: Same again, this time with CC(C)(C)NS(=O)(=O)c1ccc(NC(=O)[C@H](Cc2ccccc2)N2CCc3ccccc3C2=O)cc1
Reply: 0.05 to 1 µM

Task item: Please give the result for CN1CC(NS(=O)(=O)c2ccc(NC(=O)[C@H](Cc3ccccc3)NC(=O)c3ccc(F)cc3)cc2)C1 too.
Reply: 0.05 to 1 µM
